These data points were gathered from the supplement of paper PMC10567573.

B1: USP39 (parent)
chain: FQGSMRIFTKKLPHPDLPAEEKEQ

Variants of: B1
protocol_summary: protein stability index of a GFP-peptide fusion (GPS, HEK-293T) (PSI 1-6); higher = more stable;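 further: lentivirally expressed fusions sorted by FACS into six bins by GFP to DsRed ratio, PSI derived from sequencing read proportions per bin multiplied by bin number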
settings: c terminus: a fixed tail appended
Parameter: protein stability index. Scope: all listed entries.
measurement_kind: protein stability index

>  <mutation_name>
G3S

>  <measured>
2.31

$$$$
>  <mutation_name>
D16I

>  <measured>
2.13

$$$$
>  <mutation_name>
S4C

>  <measured>
1.39

$$$$
>  <mutation_name>
L17E

>  <measured>
2.24

$$$$
>  <mutation_name>
P18T

>  <measured>
1.88

$$$$
>  <mutation_name>
L12A

>  <measured>
1.62

$$$$
>  <mutation_name>
F8E

>  <measured>
4.01

$$$$
>  <mutation_name>
E21R

>  <measured>
1.96

$$$$
>  <mutation_name>
F8K

>  <measured>
3.64

$$$$
>  <mutation_name>
K10W

>  <measured>
1.81

$$$$
>  <mutation_name>
L12K

>  <measured>
1.86

$$$$
>  <mutation_name>
S4K

>  <measured>
2.37

$$$$
>  <mutation_name>
P15I

>  <measured>
1.75

$$$$
>  <mutation_name>
M5L

>  <measured>
2.01

$$$$
>  <mutation_name>
P15R

>  <measured>
2.03

$$$$
